meta.source: patent US4536397A

- ASSAY TEXT: Solubility in solvents
- Assay type: physicochemical
- MEASUREMENT SETUP: methanol, ethanol, propanols, n-butanol, dioxane, acetates, ketones, benzene, toluene, chlorinated solvents, DMF, DMSO
Starred links: 1 amine or outer side, 2 acyl side, 3 side chain; linkers in the order of their positions; H or OH if unused. Positions of bridges follow the written chain, without caps; N, C: chain ends. Non-standard residues stand in square brackets, D forms with d. Residues, ends and D or L forms follow the SMILES beside them. *: point of attachment. X2 = CC(C)[C@H](C)[C@@H](C(=O)[*:2])N(C)[*:1]; d(cisHyp) = O=C(O)[C@H]1C[C@@H](O)CN1; X1 = CC(C)C(C)C(C(=O)[*:2])N(C)[*:1]; Picolinoyl(3-OH) = O=C(c1ncccc1O)*; NMePhg = CN[CH](C(=O)O)c1ccccc1; Hyp = O=C(O)[CH]1C[CH](O)CN1; Abu = CC[CH](N)C(=O)O; Sar = CNCC(=O)O
QUANTITY NAME: solubility in organic solvents

>  <COMPOUND>
CCC1NC(=O)C(C(C)C(C)C)N(C)C(=O)CN(C)C(=O)C2CC(O)CN2C(=O)C(CC(C)C)NC(=O)C(NC(=O)c2ncccc2O)C(C)OC(=O)C(c2ccccc2)N(C)C1=O (stereo not drawn) [NV III, neoviridogrisein III] ({Picolinoyl(3-OH)}-TL[Hyp][Sar][X1][Abu][NMePhg]; ester 1-C; configuration not given here)

>  <REPORTED VALUE>
soluble

$$$$
>  <COMPOUND>
CC(C)CC1NC(=O)C(NC(=O)c2ncccc2O)C(C)OC(=O)C(c2ccccc2)N(C)C(=O)C(C)NC(=O)C(C(C)C(C)C)N(C)C(=O)CN(C)C(=O)C2CCCN2C1=O (stereo not drawn) [NV II, neoviridogrisein II] ({Picolinoyl(3-OH)}-TLP[Sar][X1]A[NMePhg]; ester 1-C; configuration not given here)

>  <REPORTED VALUE>
soluble

$$$$
>  <COMPOUND>
CC(C)C[C@H]1NC(=O)[C@@H](NC(=O)c2ncccc2O)[C@@H](C)OC(=O)[C@H](c2ccccc2)N(C)C(=O)[C@H](C)NC(=O)[C@H]([C@@H](C)C(C)C)N(C)C(=O)CN(C)C(=O)[C@H]2C[C@@H](O)CN2C1=O [VG, viridogrisein] ({Picolinoyl(3-OH)}-T[dL][d(cisHyp)][Sar][X2]A[NMePhg]; ester 1-C)

>  <REPORTED VALUE>
soluble

$$$$
